Entries and their GI50
Tested on: MCF7
Assay Protocol: NCI tumour cell line growth inhibition, 48 h
Calls of active or inactive are those of the source. No stated cut-off is given here; in the data, active = GI50 up to about 1.1 µM and inactive = higher.

[in] Look up GI50 for this molecule: O=[N+]([O-])/C(C(Cl)=C(Cl)Cl)=C(/Br)SCc1ccccc1
[out] 2.84 µM (inactive)

[in] Look up GI50 for this molecule: C/C(=C/CC[C@](C)(OC1OC(CO)C(O)C(O)C1O)[C@H]1CC[C@]2(C)[C@@H]1CC[C@@H]1[C@@]3(C)CC[C@H](O)C(C)(C)[C@@H]3C[C@H](O)[C@]12CO)CO (stereo partly drawn)
[out] > 100 µM (inactive)

[in] Look up GI50 for this molecule: O=C1CN(/N=C/c2ccc(-c3ccc(F)cc3)o2)C(=O)N1
[out] 49.1 µM (inactive)
